assay: Approximate solubility in different solvents at RT; format: physicochemical; conditions: n-Heptane, organic solvent or mixture, thermodynamic from solid, RT
MEASURED_ENDPOINT: solubility

Measured solubility, N#Cc1ccc(COc2cccc(C3CCN(Cc4nc5ccc(C(=O)O)cc5n4Cc4cncs4)CC3)n2)c(F)c1 [Freeform Type A] : < 1000 µg/mL

====

assay: Solubility of Meglumine salt Type A in SGF and FaSSIF at 37° C. with adjusting pH to that of the blank medium; type: physicochemical; conditions: pH 6.5, thermodynamic from solid; FaSSIF, pH adjusted to 6.5, 37° C., 24 hrs; read-out: solubility in FaSSIF
Counter-ions that a name gives are not always drawn.
MEASURED_ENDPOINT: solubility at 24 h (µg/mL)
State the answer as a number, implicitly in µg/mL.

Measured solubility at 24 h, N#Cc1ccc(COc2cccc(C3CCN(Cc4nc5ccc(C(=O)O)cc5n4Cc4cncs4)CC3)n2)c(F)c1 [Meglumine salt Type A] : 6

====

Assay: pH solubility in pH 1.0-8.0 buffers at RT
Assay type: physicochemical
Conditions: pH buffers, pH 2, aqueous buffer, thermodynamic from solid, pH 2.0 and 6.8 buffers, 2 and 24 hours
Method: The procedures were listed below: 1. […] Add 2 ml, of the corresponding medium. 2. Mixed well and stirred at RT (1000 rpm). Check the pH and adjust it back to the target pH after dosing. 3. Sampled after 2 hours and 24 hours. The supernatant was isolated by centrifugation (12000 rpm, 5 min) and filtration (0.22 μm, PTFE) for pH and HPLC test.
Where a name gives a salt, the structure may show the parent alone.
MEASURED_ENDPOINT: solubility

Measured solubility, N#Cc1ccc(COc2cccc(C3CCN(Cc4nc5ccc(C(=O)O)cc5n4Cc4cncs4)CC3)n2)c(F)c1 [Meglumine salt Type A] : 16 to 200 µg/mL

====

test: Kinetic solubility in water and bio-relevant media (SGF, FaSSIF, FeSSIF) at 37° C.; type: physicochemical; settings: H2O, 37° C., 2 hrs; calculated by freeform
Structures can show the parent of a compound that is named as a salt.
Listed molecules paired with reported S: Solubility

N#Cc1ccc(COc2cccc(C3CCN(Cc4nc5ccc(C(=O)O)cc5n4Cc4cncs4)CC3)n2)c(F)c1 [Potassium salt Type A]    1700 µg/mL

Measured S: Solubility, N#Cc1ccc(COc2cccc(C3CCN(Cc4nc5ccc(C(=O)O)cc5n4Cc4cncs4)CC3)n2)c(F)c1 [Meglumine salt Type A] : >8900 µg/mL

Measured S: Solubility, N#Cc1ccc(COc2cccc(C3CCN(Cc4nc5ccc(C(=O)O)cc5n4Cc4cncs4)CC3)n2)c(F)c1 [Tris salt Type C] : 590 µg/mL

Measured S: Solubility, N#Cc1ccc(COc2cccc(C3CCN(Cc4nc5ccc(C(=O)O)cc5n4Cc4cncs4)CC3)n2)c(F)c1 [Freeform Type C] : 27 µg/mL

====

assay: Kinetic solubility in water and bio-relevant media (SGF, FaSSIF, FeSSIF) at 37° C.; format: physicochemical; conditions: FaSSIF, 37 °C, pH 6.5, fassif, thermodynamic from solid, FaSSIF, 37° C., highest solubility, at 2 hrs; read-out: solubility in FaSSIF
Counter-ions that a name gives are not always drawn.
MEASURED_ENDPOINT: solubility at 2 h (µg/mL)
State the answer as a number, implicitly in µg/mL.

Measured solubility at 2 h, N#Cc1ccc(COc2cccc(C3CCN(Cc4nc5ccc(C(=O)O)cc5n4Cc4cncs4)CC3)n2)c(F)c1 [Meglumine salt Type A] : 1300
